# target or system: DHFR E. Coli (Escherichia coli, UniProt P0ABQ4)
# Sequence (P0ABQ4 whole entry): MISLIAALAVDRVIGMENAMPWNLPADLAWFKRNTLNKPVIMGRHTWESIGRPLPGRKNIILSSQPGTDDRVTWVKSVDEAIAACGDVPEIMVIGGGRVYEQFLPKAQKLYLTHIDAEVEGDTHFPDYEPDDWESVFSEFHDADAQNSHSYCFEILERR
# protocol details: DHFR inhibitory assay
# Assay type: biochemical
property label: IC50 (µM)
Value expressed in µM; do not type the unit.

Using the record for O=C1Nc2ccc([N+](=O)[O-])cc2/C1=N/NC(=O)c1cc(Cc2ccc(O)c(C(=O)N/N=C3\C(=O)Nc4ccc([N+](=O)[O-])cc43)c2)ccc1O , report its IC50. 4.25

----------
# Tested on: E. coli (ATCC BAA-196)
# protocol details: Antibacterial assay against multi-drug resistant strains (MIC/MBC)
# Assay type: cell-based, Escherichia coli
# stated conditions: Escherichia coli, ATCCBAA196, read-out: MIC
// assign fulfilled if MIC falls strictly below 4 µM, else not fulfilled (ties count as not fulfilled)

[
  {
    "molecule": "O=C1Nc2ccc([N+](=O)[O-])cc2/C1=N/NC(=O)c1cc(Cc2ccc(O)c(C(=O)N/N=C3\\C(=O)Nc4ccc([N+](=O)[O-])cc43)c2)ccc1O",
    "class label": "fulfilled"
  },
  {
    "molecule": "COc1ccc2c(c1)/C(=N/NC(=O)c1cc(Cc3cc(Cl)c(O)c(C(=O)N/N=C4\\C(=O)Nc5ccc(OC)cc54)c3)cc(Cl)c1O)C(=O)N2",
    "class label": "not fulfilled"
  },
  {
    "molecule": "CCn1cc(C(=O)O)c(=O)c2cc(F)c(N3CCNCC3)cc21 [Norfloxacin, reference compound]",
    "class label": "fulfilled"
  },
  {
    "molecule": "O=C1Nc2ccc(Br)cc2/C1=N/NC(=O)c1cc(Cc2cc(Cl)c(O)c(C(=O)N/N=C3\\C(=O)Nc4ccc(Br)cc43)c2)cc(Cl)c1O",
    "class label": "not fulfilled"
  }
]

In the following, a different molecule is considered.
Please indicate whether the reported MIC of O=C1Nc2ccc(Cl)cc2/C1=N/NC(=O)c1cc(Cc2ccc(O)c(C(=O)N/N=C3\C(=O)Nc4ccc(Cl)cc43)c2)ccc1O is strictly below 4 µM. fulfilled

----------
The following compounds are listed with their measured MIC values.
# Tested on: S. aureus
# protocol details: MIC/MBC assay, twofold serial dilution
# Format: cell-based, Staphylococcus aureus
Value expressed in µM; do not type the unit.

[
  {
    "compound": "O=C1Nc2ccc(Br)cc2/C1=N/NC(=O)c1cc(Cc2cc(Cl)c(O)c(C(=O)N/N=C3\\C(=O)Nc4ccc(Br)cc43)c2)cc(Cl)c1O",
    "target or system": "S. aureus",
    "MIC (µM)": 0.029
  },
  {
    "compound": "O=C1Nc2ccc([N+](=O)[O-])cc2/C1=N/NC(=O)c1cc(Cc2ccc(O)c(C(=O)N/N=C3\\C(=O)Nc4ccc([N+](=O)[O-])cc43)c2)ccc1O",
    "target or system": "S. aureus",
    "MIC (µM)": 0.021
  },
  {
    "compound": "Cc1ccc2c(c1)/C(=N/NC(=O)c1cc(Cc3ccc(O)c(C(=O)N/N=C4\\C(=O)Nc5ccc(C)cc54)c3)ccc1O)C(=O)N2",
    "target or system": "S. aureus",
    "MIC (µM)": 0.025
  },
  {
    "compound": "O=C1Nc2ccc(Cl)cc2/C1=N/NC(=O)c1cc(Cc2ccc(O)c(C(=O)N/N=C3\\C(=O)Nc4ccc(Cl)cc43)c2)ccc1O",
    "target or system": "S. aureus",
    "MIC (µM)": 0.019
  }
]

Using the record for O=C(O)c1cn(C2CC2)c2cc(N3CCNCC3)c(F)cc2c1=O [Ciprofloxacin, reference compound] , report its MIC. 0.03

----------
# System: B. subtilis
# protocol details: MIC/MBC assay, twofold serial dilution
# Type: cell-based, Bacillus subtilis
# stated conditions: Bacillus subtilis, read-out: MIC
property label: MIC (µM)
Value expressed in µM; do not type the unit.

Check out these entries, answers already filled in.
[
  {
    "smiles input": "O=C1Nc2ccc([N+](=O)[O-])cc2/C1=N/NC(=O)c1cc(Cc2ccc(O)c(C(=O)N/N=C3\\C(=O)Nc4ccc([N+](=O)[O-])cc43)c2)ccc1O",
    "property label": "MIC",
    "measured value": 0.026
  },
  {
    "smiles input": "O=C1Nc2ccc(Br)cc2/C1=N/NC(=O)c1cc(Cc2cc(Cl)c(O)c(C(=O)N/N=C3\\C(=O)Nc4ccc(Br)cc43)c2)cc(Cl)c1O",
    "property label": "MIC",
    "measured value": 0.033
  }
]

Please find the next compound below.
Using the record for COc1ccc2c(c1)/C(=N/NC(=O)c1cc(Cc3cc(Cl)c(O)c(C(=O)N/N=C4\C(=O)Nc5ccc(OC)cc54)c3)cc(Cl)c1O)C(=O)N2 , report its MIC. 0.037

----------
The following compounds are listed with their measured MIC values.
# Tested on: A. flavus
# protocol details: Antifungal assay (MIC/MFC), twofold serial dilution
# stated conditions: A. flavus
Value expressed in µM; do not type the unit.

Check out these entries, answers already filled in.
[
  {
    "compound": "Cc1ccc2c(c1)/C(=N/NC(=O)c1cc(Cc3ccc(O)c(C(=O)N/N=C4\\C(=O)Nc5ccc(C)cc54)c3)ccc1O)C(=O)N2",
    "MIC [µM]": 16.90
  },
  {
    "compound": "O=C1Nc2ccc(Cl)cc2/C1=N/NC(=O)c1cc(Cc2ccc(O)c(C(=O)N/N=C3\\C(=O)Nc4ccc(Cl)cc43)c2)ccc1O",
    "MIC [µM]": 14.50
  },
  {
    "compound": "OC(Cn1cncn1)(Cn1cncn1)c1ccc(F)cc1F [Fluconazole, reference compound]",
    "MIC [µM]": 11.50
  },
  {
    "compound": "COc1ccc2c(c1)/C(=N/NC(=O)c1cc(Cc3cc(Cl)c(O)c(C(=O)N/N=C4\\C(=O)Nc5ccc(OC)cc54)c3)cc(Cl)c1O)C(=O)N2",
    "MIC [µM]": 19.50
  }
]

Please find the next compound below.
Provide value of MIC for this record tested with A. flavus: O=C1Nc2ccc(Br)cc2/C1=N/NC(=O)c1cc(Cc2cc(Cl)c(O)c(C(=O)N/N=C3\C(=O)Nc4ccc(Br)cc43)c2)cc(Cl)c1O 18.20

----------
# Tested on: S. aureus (ATCC 43300) (MRSA)
# protocol details: Antibacterial assay against multi-drug resistant strains (MIC/MBC)
# Assay type: cell-based, Staphylococcus aureus
# stated conditions: Staphylococcus aureus; S. aureus ATCC 43300 (MRSA); read-out: MIC
property label: MIC
Returns: string containing the numeric result and its unit.

Check out these entries, answers already filled in.
[
  {
    "compound": "COc1ccc2c(c1)/C(=N/NC(=O)c1cc(Cc3cc(Cl)c(O)c(C(=O)N/N=C4\\C(=O)Nc5ccc(OC)cc54)c3)cc(Cl)c1O)C(=O)N2 [Compound 6e]",
    "MIC": "5.9 µM"
  },
  {
    "compound": "CCn1cc(C(=O)O)c(=O)c2cc(F)c(N3CCNCC3)cc21 [Norfloxacin, reference compound]",
    "MIC": "1.2 µM"
  },
  {
    "compound": "O=C1Nc2ccc(Br)cc2/C1=N/NC(=O)c1cc(Cc2cc(Cl)c(O)c(C(=O)N/N=C3\\C(=O)Nc4ccc(Br)cc43)c2)cc(Cl)c1O [Compound 6c]",
    "MIC": "4.7 µM"
  },
  {
    "compound": "Cc1ccc2c(c1)/C(=N/NC(=O)c1cc(Cc3ccc(O)c(C(=O)N/N=C4\\C(=O)Nc5ccc(C)cc54)c3)ccc1O)C(=O)N2 [Compound 6j]",
    "MIC": "3.2 µM"
  },
  {
    "compound": "O=C1Nc2ccc(Cl)cc2/C1=N/NC(=O)c1cc(Cc2ccc(O)c(C(=O)N/N=C3\\C(=O)Nc4ccc(Cl)cc43)c2)ccc1O [Compound 6h]",
    "MIC": "1.7 µM"
  }
]

Please find the next compound below.
Using the record for O=C1Nc2ccc([N+](=O)[O-])cc2/C1=N/NC(=O)c1cc(Cc2ccc(O)c(C(=O)N/N=C3\C(=O)Nc4ccc([N+](=O)[O-])cc43)c2)ccc1O [Compound 6l] , report its MIC. 2.2 µM

----------
# protocol details: Cell viability assay (MTT)
# Assay type: cell-based
# stated conditions: human, MCF-10A cells (normal mammary gland epithelial cell line), 4-day incubation
The following compounds are listed with their measured viability at 96 h, 50 µM values.
Value expressed in %; do not type the unit.

[
  {
    "smiles input": "O=C1Nc2ccc(Cl)cc2/C1=N/NC(=O)c1cc(Cc2ccc(O)c(C(=O)N/N=C3\\C(=O)Nc4ccc(Cl)cc43)c2)ccc1O",
    "unit of measurement": "%",
    "measured value": 93
  },
  {
    "smiles input": "Cc1ccc2c(c1)/C(=N/NC(=O)c1cc(Cc3ccc(O)c(C(=O)N/N=C4\\C(=O)Nc5ccc(C)cc54)c3)ccc1O)C(=O)N2",
    "unit of measurement": "%",
    "measured value": 92
  },
  {
    "smiles input": "O=C1Nc2ccc(Br)cc2/C1=N/NC(=O)c1cc(Cc2cc(Cl)c(O)c(C(=O)N/N=C3\\C(=O)Nc4ccc(Br)cc43)c2)cc(Cl)c1O",
    "unit of measurement": "%",
    "measured value": 91
  }
]

Please find the next compound below.
Using the record for COc1ccc2c(c1)/C(=N/NC(=O)c1cc(Cc3cc(Cl)c(O)c(C(=O)N/N=C4\C(=O)Nc5ccc(OC)cc54)c3)cc(Cl)c1O)C(=O)N2 , report its viability at 96 h, 50 µM. 92
